molecular target: rhesus H3 receptor (Macaca mulatta)
measured.parameter: pKi
// returns pKi (minus log10 of molar concentration), number only

GET /values?item= Cc1cc(N2CC[C@@H](N3CCC[C@H]3C)C2)ccc1N1CCC2(CCNCC2)C1=O.Cl [Example 7, Hydrochloride] &system= rhesus H3 receptor (Macaca mulatta) returns pKi: 7.82

Record "C[C@H]1CCCCN1[C@H]1CCN(c2ccc(N3CCC4(CCN(CC5CCOCC5)CC4)C3=O)c(F)c2)C1" ; system rhesus H3 receptor (Macaca mulatta); pKi = 8.34

"C[C@H]1CCCN1C1CCN(c2ccc(N3CCC4(CCN(CC5CCCC5)CC4)C3=O)c(F)c2)CC1" tested on rhesus H3 receptor (Macaca mulatta) gave pKi: 10.00

pKi for rhesus H3 receptor (Macaca mulatta) with input "C[C@H]1CCCN1[C@H]1CCN(c2ccc(N3CCC4(CCN(C(=O)c5ccccc5)CC4)C3=O)c(C(F)(F)F)c2)C1" equals 7.19

Item "C[C@H]1CCCN1[C@H]1CCN(c2ccc(N3CCC4(CCN(C(=O)c5ccoc5)CC4)C3=O)c(C(F)(F)F)c2)C1" was tested on rhesus H3 receptor (Macaca mulatta); the reported pKi is 8.02

New cases:
Record "C[C@H]1CCCN1C1CCN(c2ccc(N3CCC4(CCN(S(=O)(=O)c5ccccc5)CC4)C3=O)cc2)CC1" has rhesus H3 receptor (Macaca mulatta) pKi equal to 9.62

Entry "C[C@H]1CCCN1[C@H]1CCN(c2ccc(N3CCC4(CCN(Cc5ccco5)CC4)C3=O)c(C(F)(F)F)c2)C1" : pKi on rhesus H3 receptor (Macaca mulatta) = 8.26

====

molecular target: rhesus H3 receptor (Macaca mulatta); assay: GTPγS radioligand binding assay, inhibition of rhesus H3 constitutive functional activity (inverse agonism); format: biochemical, rhesus monkey (Macacca Mulatta); parameters: concentration or dose not given beside the values; details: rhesus H3 cell membranes, relative to basal levels
measured.parameter: Inverse Agonism: % inhibition of Basal GTPγS binding in Rhesus H3 (%)
Field format: number, assumed %, no unit text.

Record "C[C@H]1CCCCN1[C@H]1CCN(c2ccc(N3CCC4(CCN(CC5CCCCC5)CC4)C3=O)c(C(F)(F)F)c2)C1" ; system rhesus H3 receptor (Macaca mulatta); Inverse Agonism: % inhibition of Basal GTPγS binding in Rhesus H3 = −19

Observed Inverse Agonism: % inhibition of Basal GTPγS binding in Rhesus H3 on rhesus H3 receptor (Macaca mulatta), entry "COc1ccc(S(=O)(=O)N2CCC3(CCN(c4ccc(N5CC[C@H](N6CCC[C@@H]6C)C5)cc4C(F)(F)F)C3=O)CC2)cc1" , equals −18

Entry "Cc1cc(N2CC[C@@H](N3CCC[C@@H]3C)C2)ccc1N1CCC2(CCN(C(=O)OC(C)(C)C)CC2)C1=O" under rhesus H3 receptor (Macaca mulatta) had Inverse Agonism: % inhibition of Basal GTPγS binding in Rhesus H3 of −23

Could you now consider this next compound?
Let me check: "C[C@H]1CCCCN1[C@H]1CCN(c2ccc(N3CCC4(CCN(CC5CCOCC5)CC4)C3=O)c(F)c2)C1" , system rhesus H3 receptor (Macaca mulatta), measured Inverse Agonism: % inhibition of Basal GTPγS binding in Rhesus H3 is −19

====

molecular target: rhesus H3 receptor (Macaca mulatta, UniProt Q865E1); experiment: GTPγS radioligand binding assay, inhibition of rhesus H3 constitutive functional activity (inverse agonism); format: biochemical, rhesus monkey (Macacca Mulatta); set-up: concentration or dose not given beside the values; settings: rhesus H3 cell membranes, relative to basal levels
Sequence (Q865E1 1-445): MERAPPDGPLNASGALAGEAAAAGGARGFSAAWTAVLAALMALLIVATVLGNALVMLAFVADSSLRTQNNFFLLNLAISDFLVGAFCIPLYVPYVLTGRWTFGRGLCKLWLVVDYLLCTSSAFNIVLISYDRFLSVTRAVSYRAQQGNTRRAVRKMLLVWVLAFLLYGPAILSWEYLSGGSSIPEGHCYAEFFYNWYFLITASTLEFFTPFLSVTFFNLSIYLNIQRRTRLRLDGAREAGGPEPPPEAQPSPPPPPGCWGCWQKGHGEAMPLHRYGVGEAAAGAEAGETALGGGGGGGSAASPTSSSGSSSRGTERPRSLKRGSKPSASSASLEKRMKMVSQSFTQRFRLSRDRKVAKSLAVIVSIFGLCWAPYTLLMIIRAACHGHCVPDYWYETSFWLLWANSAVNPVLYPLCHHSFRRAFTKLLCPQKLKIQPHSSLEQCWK
measured.parameter: Inverse Agonism: % inhibition of Basal GTPγS binding in Rhesus H3 (%)
I only need the number, in %, no unit after it.

Entry under test: "C[C@H]1CCCN1[C@H]1CCN(c2ccc(N3CCCC4(CCN(C(=O)OC(C)(C)C)CC4)C3=O)cc2)C1" . Its Inverse Agonism: % inhibition of Basal GTPγS binding in Rhesus H3 was −28

GET /value?item= "C[C@H]1CCCN1[C@H]1CCN(c2ccc(N3CCCC4(CCN(Cc5ccccc5)CC4)C3=O)c(F)c2)C1" &field=Inverse Agonism: % inhibition of Basal GTPγS binding in Rhesus H3 returns −13

Form field Inverse Agonism: % inhibition of Basal GTPγS binding in Rhesus H3, entry "C[C@H]1CCCCN1[C@H]1CCN(c2ccc(N3CCC4(CCNCC4)C3=O)c(C(F)(F)F)c2)C1.Cl" : −24

In plain terms, "C[C@H]1CCCN1[C@H]1CCN(c2ccc(N3CCC4(CCNCC4)C3=O)c(C(F)(F)F)c2)C1.Cl" has a documented Inverse Agonism: % inhibition of Basal GTPγS binding in Rhesus H3 of −28

GET /value?item= "C[C@H]1CCCN1C1CCN(c2ccc(N3CCC4(CCN(C(=O)OC(C)(C)C)CC4)C3=O)c(F)c2)CC1" &field=Inverse Agonism: % inhibition of Basal GTPγS binding in Rhesus H3 returns −21

More entries:
GET /value?item= "C[C@H]1CCCN1C1CCN(c2ccc(N3CCC4(CCN(CC5CC5)CC4)C3=O)c(F)c2)CC1" &field=Inverse Agonism: % inhibition of Basal GTPγS binding in Rhesus H3 returns −23

What the record says about "Cc1cc(N2CC[C@H](N3CCC[C@H]3C)C2)ccc1N1CCC2(CCN(C(=O)c3ccc(OC(F)(F)F)cc3)CC2)C1=O" : Inverse Agonism: % inhibition of Basal GTPγS binding in Rhesus H3 is −14

Looking up "C[C@H]1CCCN1[C@H]1CCN(c2ccc(N3CCC4(CCN(C(=O)c5ccoc5)CC4)C3=O)c(C(F)(F)F)c2)C1" , I found its Inverse Agonism: % inhibition of Basal GTPγS binding in Rhesus H3 recorded as −19

====

biological target: rhesus H3 receptor (Macaca mulatta, UniProt Q865E1)
measured.parameter: Ki (nM)
I only need the number, in nM, no unit after it.

Per the record, C[C@H]1CCCN1[C@H]1CCN(c2ccc(N3CCCC4(CCN(C(=O)C5CCCCC5)CC4)C3=O)c(F)c2)C1 [Example 30] has Ki of 0.7

Entry C[C@H]1CCCCN1[C@H]1CCN(c2ccc(N3CCC4(CCN(S(=O)(=O)c5ccc(F)cc5)CC4)C3=O)cc2)C1 [Example 53] — recorded Ki = 1.9

get_value(item= C[C@H]1CCCCN1[C@H]1CCN(c2ccc(N3CCC4(CCN(C(=O)OC(C)(C)C)CC4)C3=O)c(C(F)(F)F)c2)C1 [Example 42] , readout=Ki) returns 64

get_value(item= Cc1cc(N2CC[C@@H](N3CCC[C@H]3C)C2)ccc1N1CCC2(CCN(CC3CCCC3)CC2)C1=O [Example 11] , readout=Ki) returns 22

Note to self: Ki recorded for C[C@H]1CCCN1[C@H]1CCN(c2ccc(N3CCC4(CCN(CC5CC5)CC4)C3=O)c(C(F)(F)F)c2)C1 [Example 67] was 1.4

Entry C[C@H]1CCCN1[C@H]1CCN(c2ccc(N3CCCC4(CCN(C(=O)OC(C)(C)C)CC4)C3=O)cc2)C1 [Example 21] ; Ki = 7.3

Short answer for Cc1cc(N2CCC(N3CCCC3C)C2)ccc1N1CCC2(CCN(CC3CCCC3)CC2)C1=O (stereo not shown) [Example 14] : Ki was 5.6

====

molecular target: rhesus H3 receptor (Macaca mulatta, UniProt Q865E1); test: GTPγS radioligand binding assay, inhibition of rhesus H3 constitutive functional activity (inverse agonism); type: biochemical, rhesus monkey (Macacca Mulatta); set-up: concentration or dose not given beside the values; details: rhesus H3 cell membranes, relative to basal levels
Inverse Agonism: % inhibition of Basal GTPγS binding in Rhesus H3 for assorted molecules
Write down the value, and be sure its unit follows.

Recorded Inverse Agonism: % inhibition of Basal GTPγS binding in Rhesus H3, per entry:
Record summary for "C[C@H]1CCCN1C1CCN(c2ccc(N3CCC4(CCN(C(=O)OC(C)(C)C)CC4)C3=O)c(C(F)(F)F)c2)CC1" : reported Inverse Agonism: % inhibition of Basal GTPγS binding in Rhesus H3 = −22%

Input "Cc1cc(N2CC[C@H](N3CCC[C@@H]3C)C2)ccc1N1CCCC2(CCN(CC3CCCCC3)CC2)C1=O" . Output Inverse Agonism: % inhibition of Basal GTPγS binding in Rhesus H3: −14%

Measured Inverse Agonism: % inhibition of Basal GTPγS binding in Rhesus H3, "C[C@H]1CCCN1C1CCN(c2ccc(N3CCC4(CCN(C(=O)c5ccc(F)cc5)CC4)C3=O)cc2)CC1" : −17%

Others:
Record "Cc1cc(N2CC[C@@H](N3CCC[C@@H]3C)C2)ccc1N1CCC2(CCNCC2)C1=O.Cl" , field Inverse Agonism: % inhibition of Basal GTPγS binding in Rhesus H3: −35%

Per the record, "Cc1cc(N2CC[C@H](N3CCC[C@@H]3C)C2)ccc1N1CCCC2(CCN(C(C)C)CC2)C1=O" has Inverse Agonism: % inhibition of Basal GTPγS binding in Rhesus H3 of −14%

The reported Inverse Agonism: % inhibition of Basal GTPγS binding in Rhesus H3 of the molecule "C[C@H]1CCCN1[C@H]1CCN(c2ccc(N3CCC4(CCN(CC5CC5)CC4)C3=O)c(C(F)(F)F)c2)C1" was −12%
